Where do these numbers come from? They come from patent US12060355B2.

test system: human HepG2 cell lines; type: cell-based; settings: human HepG2 cell line
Each record is given 1 (yes) if its reported Cytotox HepG2 is strictly below 9 µM. Records at or above 9 µM are given 0 (no).

Completed entries (count: 4):
>>> cat("O=P(O)(O)Oc1cc(F)c(-c2c(C3CC3)nc3cnc(-c4ccc(F)c(C(F)(F)F)c4)cn23)c(F)c1 [Example 62]")
"0 (no)"
>>> cat("Fc1ccc(-c2cn3c(-c4ccc5[nH]ncc5c4F)c(C(F)(F)F)nc3cn2)cc1CC(F)(F)F [Example 69]")
"1 (yes)"
>>> cat("CC(C)c1nc2cnc(-c3cccc(S(F)(F)(F)(F)F)c3)cn2c1-c1c(F)cc(O)cc1F [Example 39]")
"1 (yes)"
>>> cat("CC(C)c1cc(-c2cn3c(-c4ccc5[nH]ncc5c4Cl)c(C(F)(F)F)nc3cn2)ccc1F [Example 83]")
"1 (yes)"

Attention now shifts to the item below.
Request: Identify whether the molecule Fc1c(-c2c(C(F)(F)F)nc3cnc(-c4cccc(OC(F)(F)F)c4)cn23)ccc2[nH]ncc12 [Example 72] records Cytotox HepG2 below 9 µM.
Result: 0 (no)

###

system: human HepG2 cell lines; format: cell-based; details: human HepG2 cell line
measured quantity: Cytotox HepG2 (µM)
// return numeric value only (unit: µM, not printed)

Per the record, Fc1ccc(-c2cn3c(-c4ccc5[nH]ncc5c4F)c(C(F)(F)F)nc3cn2)cc1C1CC1 has Cytotox HepG2 of 10.5

Per the record, CC(C)c1nn2cnc(-c3ccc(F)c(C(F)(F)F)c3)cc2c1-c1c(F)cc(O)cc1F has Cytotox HepG2 of 8.9

###

compounds and their reported Cytotox MRC-5
test system: human MRC-5 cell line; assay: Cytotoxicity against human MRC-5 cell line; format: cell-based
// return numeric value only (unit: µM, not printed)

Recorded results for 3 compounds are shown here.
>>> measurement("Cc1nc2cnc(-c3ccc(F)c(C(F)(F)F)c3)cn2c1-c1ccc(O)cc1F")
14.4
>>> measurement("Cc1nc2cnc(-c3cccc(C(F)(F)F)c3)cn2c1-c1ccc(O)cc1F")
15.8
>>> measurement("CCc1nc2cnc(-c3cccc(C(F)(F)F)c3)cn2c1-c1ccc(O)cc1F")
17.3

Per the record, COc1ccc(-c2c(C(C)C)nc3cnc(-c4cccc(C(F)(F)F)c4)cn23)cc1O has Cytotox MRC-5 of 21.8

Per the record, CC(C)c1nc2cnc(-c3cccc(C(F)(F)F)c3)cn2c1-c1ccc(O)cc1F has Cytotox MRC-5 of 13.7

###

system: human HepG2 cell lines; assay type: cell-based; settings: human HepG2 cell line
compounds and their reported Cytotox HepG2
Give the number first and the unit second.

Recorded results for 3 compounds are shown here.
>>> measurement("CC1(c2nc3cnc(-c4ccc(F)c(C(F)(F)F)c4)cn3c2-c2c(F)cc(O)cc2F)CC1")
"7.9 µM"
>>> measurement("CC(C)c1nc2cnc(-c3ccc(F)c(C(F)(F)F)c3)nc2n1-c1c(F)cc(O)cc1F")
"4.8 µM"
>>> measurement("CC(C)c1nc2cnc(-c3cccc(C(F)(F)F)c3)cn2c1-c1ccc(OP(=O)(O)O)cc1F")
"9.2 µM"

Kindly consider the entry below.
Per the record, CC(C)Oc1cccc(-c2cn3c(-c4ccc5[nH]ncc5c4F)c(C(F)(F)F)nc3cn2)c1 has Cytotox HepG2 of 13.2 µM

###

tested on: human HepG2 cell lines; type: cell-based; settings: human HepG2 cell line
I would appreciate it if you labelled entries MET when Cytotox HepG2 is 10 µM or higher, otherwise NOT MET.

Completed entries (count: 5):
>>> cat("CCc1nc2cnc(-c3cccc(C(F)(F)F)c3)cn2c1-c1ccc(O)cc1F")
"MET"
>>> cat("CCc1nc2cnc(-c3ccc(F)c(C(F)(F)F)c3)cn2c1-c1c(F)cc(O)cc1F")
"NOT MET"
>>> cat("Fc1ccc(-c2cn3c(-c4ccc5[nH]ncc5c4F)c(C4CC4)nc3cn2)cc1S(F)(F)(F)(F)F")
"MET"
>>> cat("CCc1nc2cnc(-c3ccc(F)c(C(C)C)c3)cn2c1-c1ccc2[nH]ncc2c1F")
"MET"
>>> cat("COc1ccc(-c2c(C(C)C)nc3cnc(-c4cccc(C(F)(F)F)c4)cn23)cc1OP(=O)(O)O")
"MET"

Attention now shifts to the item below.
Request: Is Cytotox HepG2 at least 10 µM? Consider Oc1cc(F)c(-c2c(C3CCC3)nc3cnc(-c4ccc(F)c(C(F)(F)F)c4)cn23)c(F)c1
Result: NOT MET

###

system: human HepG2 cell lines; format: cell-based; settings: human HepG2 cell line
compounds and their reported Cytotox HepG2
// return numeric value only (unit: µM, not printed)

Recorded results for 5 compounds are shown here.
>>> measurement("Oc1cc(F)c(-c2c(C3CC3)nc3cnc(-c4ccc(F)c(C(F)(F)F)c4)cn23)c(F)c1 [Example 34]")
8.9
>>> measurement("Cc1nc2cnc(-c3ccc(F)c(C(F)(F)F)c3)cn2c1-c1c(F)cc(OP(=O)(O)O)cc1F [Example 41]")
6.8
>>> measurement("Fc1ccc(-c2cn3c(-c4ccc5[nH]ncc5c4F)c(C4CC4)nc3cn2)cc1C(F)(F)F [Example 32]")
16.1
>>> measurement("CC(C)c1cc(-c2cn3c(-c4ccc5[nH]ncc5c4F)c(C(C)C)nc3cn2)ccc1F [Example 74]")
11.0
>>> measurement("CC(C)c1nc2cnc(-c3cccc(C(F)(F)F)c3)nc2n1-c1ccc(O)cc1F [Example 90]")
9.3

Per the record, CC(C)c1cc(-c2cn3c(-c4ccc5[nH]ncc5c4F)c(C(F)(F)F)nc3cn2)ccc1F [Example 67] has Cytotox HepG2 of 17.0

Per the record, CC(C)c1nc2ccc(-c3cccc(C(F)(F)F)c3)cn2c1-c1ccc(O)cc1F [Example 94] has Cytotox HepG2 of 10.6

Per the record, CC(C)c1nn2ccc(-c3ccc(F)c(C(F)(F)F)c3)cc2c1-c1ccc2[nH]ncc2c1F [Example 55] has Cytotox HepG2 of 11.1

###

system: human HepG2 cell lines; type: cell-based; conditions: human HepG2 cell line
compounds and their reported Cytotox HepG2
// return numeric value only (unit: µM, not printed)

>>> measurement("CCc1nn2cnc(-c3ccc(F)c(C(F)(F)F)c3)cc2c1-c1c(F)cc(O)cc1F")
9.8
>>> measurement("CC(C)c1cc(-c2cn3c(-c4ccc5[nH]ncc5c4F)c(C4CCC4)nc3cn2)ccc1F")
10.8
>>> measurement("CC(C)c1nc2cnc(-c3cccc(C(F)(F)F)c3)cn2c1-c1c(F)cc(O)cc1F")
7.5

Per the record, Fc1ccc(-c2cn3c(-c4ccc5[nH]ncc5c4F)c(C(F)(F)F)nc3cn2)cc1S(F)(F)(F)(F)F has Cytotox HepG2 of 11.1

Per the record, Cc1n[nH]c2ccc(-c3c(C(C)C)nc4cnc(-c5cccc(C(F)(F)F)c5)cn34)cc12 has Cytotox HepG2 of 10.3

###

test system: human HepG2 cell lines; assay type: cell-based; details: human HepG2 cell line
measured quantity: Cytotox HepG2 (µM)
// return numeric value only (unit: µM, not printed)

>>> measurement("CC(C)c1nc2cnc(-c3ccc(F)c(C(F)(F)F)c3)cn2c1-c1c(F)cc(O)cc1F")
7.1

For the compound Fc1ccc(-c2cn3c(-c4ccc5[nH]ncc5c4F)c(C(F)(F)F)nc3cn2)cc1C(F)(F)C(F)(F)F , the measured Cytotox HepG2 on human HepG2 cell lines was 11.7

For the compound COc1ccc(-c2c(C(F)(F)F)nc3cnc(-c4cccc(C(F)(F)C(F)(F)F)c4)cn23)cc1O , the measured Cytotox HepG2 on human HepG2 cell lines was 11.1

For the compound CC(C)c1cc(-c2cn3c(-c4ccc5[nH]ncc5c4F)c(C4CC4)nc3cn2)ccc1F , the measured Cytotox HepG2 on human HepG2 cell lines was 15.7

For the compound Fc1ccc(-c2cn3c(-c4ccc5[nH]ncc5c4F)c(C(F)(F)F)nc3cn2)cc1OC(F)(F)F , the measured Cytotox HepG2 on human HepG2 cell lines was 12.2

For the compound Fc1c(-c2c(C(F)(F)F)nc3cnc(-c4cccc(C(F)(F)C(F)(F)F)c4)cn23)ccc2[nH]ncc12 , the measured Cytotox HepG2 on human HepG2 cell lines was 8.9

For the compound Fc1ccc(-c2cn3c(-c4ccc5[nH]ncc5c4F)c(C(F)(F)F)nc3cn2)cc1C1CCC1 , the measured Cytotox HepG2 on human HepG2 cell lines was 6.1

For the compound CCc1nc2cnc(-c3cccc(C(F)(F)C(F)(F)F)c3)cn2c1-c1c(F)cc(O)cc1F , the measured Cytotox HepG2 on human HepG2 cell lines was 8.0

For the compound Fc1c(-c2c(C3CC3)nc3cnc(-c4cccc(S(F)(F)(F)(F)F)c4)cn23)ccc2[nH]ncc12 , the measured Cytotox HepG2 on human HepG2 cell lines was 20.7
